# SYSTEM UNDER TEST: UniProtKB P01116
# EXPERIMENTAL DETAILS: Binding to KRAS by surface plasmon resonance (SPR), Single Cycle Kinetics
# CONDITION SET: SPR, Single Cycle Kinetics, 1:1 binding model; GDP-bound KRAS wild-type protein; read-out: KRAS KD
Can you tell me pKd for the items I'm about to list?
Answers are plain numbers, as −log10 of the molar value.

For orientation, consider the following solved cases.
CCO[C@@H]1C[C@H]2C(=O)NC3(CCC3)C(=O)N(C)[C@@H](C3CCCC3)C(=O)N(C)[C@H](C(=O)N(C)C)CC(=O)N(C)[C@@H](CC(C)C)C(=O)N[C@@H]([C@@H](C)CC)C(=O)N(C)CC(=O)N(C)[C@H]3C/C=C\CCN(C3=O)[C@@H](Cc3ccc(C(F)(F)F)cc3)C(=O)N(C)CC(=O)N[C@@H](CCc3ccc(Cl)c(Cl)c3)C(=O)N2C1    9.74
CC[C@H](C)[C@@H]1NC(=O)[C@H](CC)N(C)C(=O)C[C@@H](C(=O)N2CCOCC2)N(C)C(=O)[C@H](C2CCCC2)N(C)C(=O)C2(CCCC2)NC(=O)[C@@H]2CCCN2C(=O)[C@H](CCc2ccc(C(F)(F)F)c(Cl)c2)NC(=O)CN(C)C(=O)[C@H](Cc2ccc(C(F)(F)F)cc2)N2C[C@H](C)CC[C@@H](C2=O)N(C)C(=O)CN(C)C1=O    9.77

Note: attention shifts to another entry.
*Q* Can you look up the measured pKd of CCO[C@@H]1C[C@H]2C(=O)NC3(CCC3)C(=O)N(C)[C@@H](C3CCCC3)C(=O)N(C)[C@H](C(=O)N(C)C)CC(=O)N(C)[C@@H](CC3CC3)C(=O)N[C@@H]([C@@H](C)CC)C(=O)NCC(=O)N(C)[C@H]3C/C=C\CCN(C3=O)[C@@H](Cc3ccc(C(F)(F)F)cc3)C(=O)N(C)CC(=O)N[C@@H](CCc3cc(F)c(C(F)(F)F)c(F)c3)C(=O)N2C1 for me?
*A* 10.14

====

# SYSTEM UNDER TEST: UniProtKB P01116
# EXPERIMENTAL DETAILS: Binding to KRAS by surface plasmon resonance (SPR), Single Cycle Kinetics
# CONDITION SET: SPR, Single Cycle Kinetics, GDP-bound KRAS wild-type protein; read-out: KRAS KD
OBSERVABLE: pKd
Numbers only, as −log10 of the molar value.

C#CCN1CC(=O)N(C)[C@H]2C/C=C\CCN(C2=O)[C@@H](Cc2ccc(C)cc2)C(=O)N(C)CC(=O)N[C@@H](CCc2ccc(C(F)(F)F)c(OC)c2)C(=O)N2C[C@H](OCC)C[C@H]2C(=O)NC2(CC(C)(C)C2)C(=O)N(C)[C@@H](C2CCCC2)C(=O)N(C)[C@H](C(=O)N(C)C)CC(=O)N(C)[C@@H](CCC)C(=O)N[C@@H](CC(C)C)C1=O    8.62
CCO[C@@H]1C[C@H]2C(=O)NC3(CCC3)C(=O)N(C)[C@@H](C3CCCC3)C(=O)N(C)[C@H](C(=O)N(C)CC)CC(=O)N(C)[C@H]3CCCCCc4ccc(cc4)C[C@@H](C(=O)N(C)CC(=O)N[C@@H](CCc4ccc(C(F)(F)F)c(OC)c4)C(=O)N2C1)N1CC/C=C\C[C@@H](C1=O)N(C)C(=O)CN(C)C(=O)[C@H]([C@@H](C)CC)NC3=O    9.82
CC[C@H](C)[C@@H]1NC(=O)[C@H](CC(C)C)N(C)C(=O)C[C@@H](C(=O)N(C)C)N(C)C(=O)[C@H](C2CCCC2)N(C)C(=O)C2(CCC2)NC(=O)[C@@H]2C[C@@H](C)CN2C(=O)[C@H](CCc2ccc(C(F)(F)F)c(OC)c2)NC(=O)CN(C)C(=O)[C@H](Cc2ccc(C)cc2)N2CC/C=C\C[C@@H](C2=O)N(C)C(=O)CN(C)C1=O    9.77
CCO[C@@H]1C[C@H]2C(=O)NC3(CCC3)C(=O)N(C)[C@@H](C3CCCC3)C(=O)N(C)[C@H](C(=O)N3CCOCC3)CC(=O)N(C)[C@@H](COC)C(=O)N[C@@H]([C@@H](C)CC)C(=O)N3CC[C@H]3C(=O)N(C)[C@H]3CCCCCN(C3=O)[C@@H](Cc3ccc(C(F)(F)F)cc3)C(=O)N(C)CC(=O)N[C@@H](CCc3cc(F)c(C(F)(F)F)c(F)c3)C(=O)N2C1    9.22
CCC[C@H]1C(=O)N[C@@H](C2CCOCC2)C(=O)N(C)CC(=O)N(C)[C@H]2C/C=C\CCN(C2=O)[C@@H](Cc2ccc(C(F)(F)F)cc2)C(=O)N(C)CC(=O)N[C@@H](CCc2ccc(C(F)(F)F)c(Cl)c2)C(=O)N2C[C@H](OCC)C[C@H]2C(=O)NC2(CC(C)(C)C2)C(=O)N(C)[C@@H](C2CCCC2)C(=O)N(C)[C@H](C(=O)N(C)C)CC(=O)N1C    8.89

Now look at this one.
*Q* Entry CCC[C@H]1C(=O)N[C@@H]([C@@H](C)CC)C(=O)N(C2CC2)CC(=O)N(C)[C@H]2C/C=C\CCN(C2=O)[C@@H](Cc2ccc(C(F)(F)F)cc2)C(=O)N(C)CC(=O)N[C@@H](CCc2cc(F)c(C(F)(F)F)c(F)c2)C(=O)N2C[C@H](OCC)C[C@H]2C(=O)NC2(CC(C)(C)C2)C(=O)N(C)[C@@H](C2CCCC2)C(=O)N(C)[C@H](C(=O)N(C)C)CC(=O)N1C : reported pKd = ?
*A* 9.49

====

# SYSTEM UNDER TEST: GDP-bound KRAS wild-type protein (Homo sapiens)
# Sequence (P01116 whole entry): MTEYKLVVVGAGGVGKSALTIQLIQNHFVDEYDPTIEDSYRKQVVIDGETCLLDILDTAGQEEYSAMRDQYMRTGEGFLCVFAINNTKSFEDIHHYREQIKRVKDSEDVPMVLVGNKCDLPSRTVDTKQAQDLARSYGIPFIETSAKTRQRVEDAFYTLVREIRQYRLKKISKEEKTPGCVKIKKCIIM
# EXPERIMENTAL DETAILS: Binding to KRAS by surface plasmon resonance (SPR), Single Cycle Kinetics
# CONDITION SET: SPR Single Cycle Kinetics, GDP-bound KRAS wild-type protein, 1:1 binding model; read-out: KRAS KD
Where a SMILES comes first, the peptide text is derived from it. Bridges are numbered along the chain shown (N, C = ends). [ ]: non-standard residue; d: D form. The star is where a group is joined. hPhe(3-Cl-4-CF3) = N[C@@H](CCc1ccc(C(F)(F)F)c(Cl)c1)C(=O)O; NPrPhe(4-Me) = CCCN[C@@H](Cc1ccc(C)cc1)C(=O)O; NMeGly(cPent) = CN[C@H](C(=O)O)C1CCCC1; NMeD = CN[C@@H](CC(=O)O)C(=O)O; NMeL = CN[C@@H](CC(C)C)C(=O)O; Morpholide = C1CN(*)CCO1; Ac5c = NC1(C(=O)O)CCCC1; Aze = O=C(O)[C@@H]1CCN1; Sar = CNCC(=O)O
Provide the reported pKd of each item.
Numbers only, as −log10 of the molar value.

Sample answers from the record:
CCC[C@H]1C(=O)N[C@@H]([C@@H](C)CC)C(=O)N(C2CC2)CC(=O)N(C)[C@H]2C/C=C\CCN(C2=O)[C@@H](Cc2ccc(C(F)F)cc2)C(=O)N(C)CC(=O)N[C@@H](CCc2cc(F)c(C(F)(F)F)c(F)c2)C(=O)N2C[C@H](OC(C)C)C[C@H]2C(=O)NC2(CC(C)(C)C2)C(=O)N(C)[C@@H](C(CC)CC)C(=O)N(C)[C@H](C(=O)N(C)C)CC(=O)N1C    9.11
CCC[C@H]1C(=O)N[C@@H]([C@@H](C)CC)C(=O)N(C)CC(=O)N(C)[C@H]2C/C=C\CCN(C2=O)[C@@H](Cc2ccc(C(F)F)cc2)C(=O)N(C)CC(=O)N[C@@H](CCc2ccc(Cl)c(Cl)c2)C(=O)N2C[C@H](OC3CCC3)C[C@H]2C(=O)NC2(CC(C)(C)C2)C(=O)N(C)[C@@H](C(CC)CC)C(=O)N(C)[C@H](C(=O)N(C)C)CC(=O)N1C    9.31
CCC[C@H]1C(=O)N[C@@H]([C@@H](C)CC)C(=O)N(C)CC(=O)N(C)[C@H]2C/C=C\CCN(C2=O)[C@@H](Cc2ccc(C(F)(F)F)cc2)C(=O)N(C)CC(=O)N[C@@H](CCc2cc(Cl)c3sccc3c2)C(=O)N2C[C@H](OCC)C[C@H]2C(=O)NC2(CC(C)(C)C2)C(=O)N(C)[C@@H](C(CC)CC)C(=O)N(C)[C@H](C(=O)N(C)C)CC(=O)N1C    9.41

Provide pKd values for the following items, in order.
1. CCCN1C(=O)[C@@H]2CCN2C(=O)[C@H](C)NC(=O)[C@H]([C@@H](C)CC)NC(=O)[C@H](CC(C)C)N(C)C(=O)C[C@@H](C(=O)N2CCOCC2)N(C)C(=O)[C@H](C2CCCC2)N(C)C(=O)C2(CCCC2)NC(=O)[C@@H]2CCCN2C(=O)[C@H](CCc2ccc(C(F)(F)F)c(Cl)c2)NC(=O)CN(C)C(=O)[C@@H]1Cc1ccc(C)cc1 [PP0071] ([NMeL]IA[Aze][NPrPhe(4-Me)][Sar][hPhe(3-Cl-4-CF3)]P[Ac5c][NMeGly(cPent)][NMeD]-Morpholide; lactam N-11)
2. CCC[C@H]1C(=O)N[C@@H]([C@@H](C)CC)C(=O)N(C2CC2)CC(=O)N(C)[C@H]2C/C=C\CCN(C2=O)[C@@H](Cc2ccc(C(F)(F)F)cc2)C(=O)N(C)CC(=O)N[C@@H](CCc2ccc(Cl)c(Cl)c2)C(=O)N2C[C@H](OCC)C[C@H]2C(=O)NC2(CC(C)(C)C2)C(=O)N(C)[C@@H](CC2CC2)C(=O)N(C)[C@H](C(=O)N(C)C)CC(=O)N1C

*A*
[9.82, 8.62]
